Test system: human peripheral blood mononuclear cells (hPBMC)
Assay: human PBMC assay, Example 3 (oligo and PLGA added at the same time, 48 well plates)
Assay type: cell-based
Conditions: mean of donors 28033, 28034

substance	assayed.target	IFN-γ Mean (pg/mL)
5′-TGACTGTGAACGTTCGAGATGA-3′ [ISS+, reference compound]	human peripheral blood mononuclear cells (hPBMC)	161
5′-ATCGAT-3′ [Oligonucleotide 6-7]	human peripheral blood mononuclear cells (hPBMC)	2
5′-TCGTCG-3′ [Oligonucleotide 6-1]	human peripheral blood mononuclear cells (hPBMC)	2
5′-AACGTT-3′ [Oligonucleotide 6-16]	human peripheral blood mononuclear cells (hPBMC)	2
5′-TGACTGTGAACCTTAGAGATGA-3′ (DNA, all phosphorothioate, methylation of C not given here) [ISS−, reference compound]	human peripheral blood mononuclear cells (hPBMC)	5

###

Test system: human peripheral blood mononuclear cells (hPBMC)
Test: human PBMC assay, Example 4 (oligos and PLGA premixed 15 minutes)
Type: cell-based
Details: donor 28045
measurement.type: IFN-γ (pg/mL)

substance	measurement.type	readout.units	measured.value
5′-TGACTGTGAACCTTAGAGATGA-3′ (DNA, all phosphorothioate, methylation of C not given here) [ISS−, reference compound]	IFN-γ	pg/mL	51
5′-GTCGAC-3′ [Oligonucleotide 6-8]	IFN-γ	pg/mL	0
5′-TCGAGA-3′ [Oligonucleotide 6-6]	IFN-γ	pg/mL	0
5′-TTTCGT-3′ [Oligonucleotide 6-4]	IFN-γ	pg/mL	0
5′-TTCGTT-3′ [Oligonucleotide 6-3]	IFN-γ	pg/mL	0
5′-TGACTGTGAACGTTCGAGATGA-3′ [ISS+, reference compound]	IFN-γ	pg/mL	669
5′-GTCGTT-3′ [Oligonucleotide 6-9]	IFN-γ	pg/mL	0
5′-TCGTTT-3′ [Oligonucleotide 6-2]	IFN-γ	pg/mL	0

###

Measured IFN-α, listed per entry.
System: human peripheral blood mononuclear cells (hPBMC)
Experiment: human PBMC assay, Example 3 (oligo and PLGA added at the same time, 48 well plates)
Assay type: cell-based
Conditions: donor 28033; oligo 20 μg/ml, PLGA 250 μg/ml; 24 hours
Description: Hexameric oligonucleotides were tested for immunomodulatory activity alone and complexed with lactic acid/glycolic acid copolymer microcarrier beads using a human peripheral blood mononuclear cells (hPBMC) assay. Peripheral blood was collected from healthy volunteers by venipuncture using heparinized syringes. […]
measurement.type: IFN-α

substance	assayed.target	measured.value
5′-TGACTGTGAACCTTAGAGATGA-3′ (DNA, all phosphorothioate, methylation of C not given here) [ISS−, reference compound]	human peripheral blood mononuclear cells (hPBMC)	0 pg/mL
5′-AACGTT-3′ [Oligonucleotide 6-16]	human peripheral blood mononuclear cells (hPBMC)	3 pg/mL
5′-ATCGAT-3′ [Oligonucleotide 6-7]	human peripheral blood mononuclear cells (hPBMC)	8 pg/mL
5′-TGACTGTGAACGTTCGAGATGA-3′ [ISS+, reference compound]	human peripheral blood mononuclear cells (hPBMC)	28 pg/mL
5′-TCGTCG-3′ [Oligonucleotide 6-1]	human peripheral blood mononuclear cells (hPBMC)	0 pg/mL

###

Test system: human peripheral blood mononuclear cells (hPBMC)
Test: human PBMC assay, Example 6
Assay type: cell-based
Conditions: volunteer 155
measurement.type: IFN-γ (pg/mL)

substance	measured.value
5′-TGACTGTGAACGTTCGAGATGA-3′ [ISS+, reference compound]	131
5′-TCGCGA-3′ [Oligonucleotide 6-10]	0
5′-TTTTCG-3′ [Oligonucleotide 6-5]	0
5′-GACGTT-3′ [Oligonucleotide 6-17, reference compound]	0
5′-TCGTCG-3′ [Oligonucleotide 6-1]	0

###

Measured IFN-γ, listed per entry.
Test system: human peripheral blood mononuclear cells (hPBMC)
Test: human PBMC assay, Example 5 (96 well plates, premixed)
Format: cell-based
Details: donor 28052

substance	IFN-γ, pg/mL
5′-TTTCGT-3′ [Oligonucleotide 6-4]	0
5′-AACGTT-3′ [Oligonucleotide 6-16]	2
5′-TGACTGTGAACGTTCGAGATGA-3′ [ISS+, reference compound]	20
5′-GTCGAC-3′ [Oligonucleotide 6-8]	0
5′-TCGTTT-3′ [Oligonucleotide 6-2]	0
5′-GTCGTT-3′ [Oligonucleotide 6-9]	0
5′-TCGAGA-3′ [Oligonucleotide 6-6]	2
5′-ATCGAT-3′ [Oligonucleotide 6-7]	1
5′-TCGTCG-3′ [Oligonucleotide 6-1]	3
5′-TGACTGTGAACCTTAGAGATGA-3′ (DNA, all phosphorothioate, methylation of C not given here) [ISS−, reference compound]	2
5′-TTCGTT-3′ [Oligonucleotide 6-3]	0

###

Test system: human peripheral blood mononuclear cells (hPBMC)
Assay: human PBMC assay, Example 5 (96 well plates, premixed)
Format: cell-based
Conditions: donor 28053
Experimental: Hexameric oligonucleotides were tested for immunomodulatory activity alone and complexed with lactic acid/glycolic acid copolymer microcarrier beads using a human peripheral blood mononuclear cells (hPBMC) assay. Peripheral blood was collected from healthy volunteers by venipuncture using heparinized syringes. […]
measurement.type: log10 of IFN-γ (log10 of the value in pg/mL)

substance	measured.value
5′-TCGAGA-3′ [Oligonucleotide 6-6]	0.00
5′-AACGTT-3′ [Oligonucleotide 6-16]	0.30
5′-TTTCGT-3′ [Oligonucleotide 6-4]	0.30
5′-GTCGTT-3′ [Oligonucleotide 6-9]	0.30
5′-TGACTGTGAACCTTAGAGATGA-3′ (DNA, all phosphorothioate, methylation of C not given here) [ISS−, reference compound]	0.48
5′-TCGTCG-3′ [Oligonucleotide 6-1]	0.00
5′-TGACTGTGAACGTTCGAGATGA-3′ [ISS+, reference compound]	1.86
5′-TCGTTT-3′ [Oligonucleotide 6-2]	0.48
5′-GTCGAC-3′ [Oligonucleotide 6-8]	0.00
5′-TTCGTT-3′ [Oligonucleotide 6-3]	0.70
5′-ATCGAT-3′ [Oligonucleotide 6-7]	0.30

###

Measured IFN-α Mean, listed per entry.
Test system: human peripheral blood mononuclear cells (hPBMC)
Experiment: human PBMC assay, Example 5 (96 well plates, premixed)
Type: cell-based
Settings: mean of donors 28051-28054

substance	IFN-α Mean (pg/mL)
5′-TTTCGT-3′ [Oligonucleotide 6-4]	3
5′-TTCGTT-3′ [Oligonucleotide 6-3]	3
5′-TCGTCG-3′ [Oligonucleotide 6-1]	2

###

Tested on: human peripheral blood mononuclear cells (hPBMC)
Experiment: human PBMC assay, Example 5 (96 well plates, premixed)
Assay type: cell-based
Conditions: donor 28054
Protocol: Hexameric oligonucleotides were tested for immunomodulatory activity alone and complexed with lactic acid/glycolic acid copolymer microcarrier beads using a human peripheral blood mononuclear cells (hPBMC) assay. Peripheral blood was collected from healthy volunteers by venipuncture using heparinized syringes. […]
Outcome: true (1) for IFN-α of at least 2 pg/mL; false (0) for anything lower.

substance	assigned.label
5′-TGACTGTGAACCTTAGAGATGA-3′ (DNA, all phosphorothioate, methylation of C not given here) [ISS−, reference compound]	true (1)
5′-TCGAGA-3′ [Oligonucleotide 6-6]	true (1)
5′-TCGTCG-3′ [Oligonucleotide 6-1]	true (1)
5′-GTCGAC-3′ [Oligonucleotide 6-8]	false (0)
5′-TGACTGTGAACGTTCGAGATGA-3′ [ISS+, reference compound]	true (1)
5′-TTCGTT-3′ [Oligonucleotide 6-3]	false (0)

###

Tested on: human peripheral blood mononuclear cells (hPBMC)
Test: human PBMC assay, Example 3 (oligo and PLGA added at the same time, 48 well plates)
Format: cell-based
Conditions: donor 28033; oligo 20 μg/ml, PLGA 250 μg/ml; 24 hours
Measured IFN-γ, listed per entry.

substance	IFN-γ [pg/mL]
5′-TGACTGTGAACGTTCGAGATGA-3′ [ISS+, reference compound]	99
5′-ATCGAT-3′ [Oligonucleotide 6-7]	0
5′-TCGTCG-3′ [Oligonucleotide 6-1]	0
5′-AACGTT-3′ [Oligonucleotide 6-16]	0

###

Measured IFN-γ Mean, listed per entry.
Test system: human peripheral blood mononuclear cells (hPBMC)
Test: human PBMC assay, Example 6
Format: cell-based
Conditions: mean of donors 28075-28078
Experimental: Hexameric oligonucleotides were tested for immunomodulatory activity alone and complexed with lactic acid/glycolic acid copolymer microcarrier beads using a human peripheral blood mononuclear cells (hPBMC) assay. Peripheral blood was collected from healthy volunteers by venipuncture using heparinized syringes. […]

substance	IFN-γ Mean / pg/mL
5′-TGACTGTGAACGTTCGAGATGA-3′ [ISS+, reference compound]	53
5′-ACGTTT-3′ [Oligonucleotide 6-13]	67
5′-TCGTTT-3′ [Oligonucleotide 6-2]	11
